This collection of values is drawn from patent EP4722211A1.

Please provide measured Cmax for the entries that follow.
Experiment: Pharmacokinetic study in SD rats after oral gavage, plasma by LC/MS/MS
Format: in vivo
Settings: both sexes, Sprague-Dawley (SD), rat, 2 mg/kg, 2mpk
The reply should be a number in ng/mL, with the unit left off.

Inquiry: Item Cc1nn(C2CC2)cc1-c1ccc(-c2n[nH]c3ccc(O[C@H](C)c4c(Cl)cncc4Cl)nc23)cn1 [Cpd-145A] has what recorded Cmax?
Reply text: 186

Inquiry: Item CCN1CCN(c2ccc(Nc3cc(N(C)C(=O)Nc4c(Cl)c(OC)cc(OC)c4Cl)ncn3)cc2)CC1 [Infigratinib, reference compound] has what recorded Cmax?
Reply text: 22.2

Inquiry: Item Cc1cc2[nH]nc(-c3ccc(-c4c(C)nn(CC(C)(C)O)c4C)nc3)c2nc1O[C@H](C)c1c(Cl)cncc1Cl [Cpd-175A] has what recorded Cmax?
Reply text: 82.6
